- ASSAY_TARGET: Serotonin 1a (5-HT1a) receptor/Adrenergic receptor alpha-1 (Rattus norvegicus) (UniProt P15823+P23944+P43140+P19327)
- EXPERIMENT: Ratio of Ki value for alpha-1 receptor to that of 5-HT1A receptor
- Type: protein assay
ENDPOINT_NAME: Selectivity
Provide a numeric answer; units are not to be included.

Before answering, review these 3 worked examples.
COc1ccccc1N1CCN(CCCCNC(=O)c2ccc(N)cc2)CC1 : 4
COc1ccccc1N1CCN(CCCCNC(=O)c2ccc([N+](=O)[O-])cc2)CC1 : 3
COc1ccccc1N1CCN(CCCCNC(=O)c2ccc(Cl)c(Cl)c2)CC1 : 11

// sample "O=C1c2ccccc2C(=O)N1CCCCN1CCN(c2ccc([N+](=O)[O-])cc2)CC1" , its Selectivity was 0.4

* * *

- ASSAY_TARGET: 5-hydroxytryptamine receptor 2C (Rattus norvegicus, UniProt P08909)
- Sequence (P08909 whole entry): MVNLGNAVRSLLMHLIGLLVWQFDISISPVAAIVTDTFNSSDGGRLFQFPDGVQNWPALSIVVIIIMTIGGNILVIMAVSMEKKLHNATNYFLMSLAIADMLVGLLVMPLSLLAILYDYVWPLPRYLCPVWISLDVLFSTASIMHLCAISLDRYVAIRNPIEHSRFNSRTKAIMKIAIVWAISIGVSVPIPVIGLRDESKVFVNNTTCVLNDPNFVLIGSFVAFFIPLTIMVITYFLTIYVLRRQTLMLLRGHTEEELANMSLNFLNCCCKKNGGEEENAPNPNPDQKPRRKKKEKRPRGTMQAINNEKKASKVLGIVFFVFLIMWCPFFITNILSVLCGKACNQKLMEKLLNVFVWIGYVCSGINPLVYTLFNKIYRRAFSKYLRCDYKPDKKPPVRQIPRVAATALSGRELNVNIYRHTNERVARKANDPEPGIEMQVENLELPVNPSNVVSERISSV
ENDPOINT_NAME: pKi
// scale note: pKi = -log10(conc_M); give the bare number

// sample "COc1ccccc1N1CCN(CCCCNC(=O)C23C[C@H]4C[C@@H](C2)C[C@@H](C3)C4)CC1" , its pKi was 6.65

* * *

- ASSAY_TARGET: 5-hydroxytryptamine receptor 1A (Rattus norvegicus)
- Sequence (P19327 whole entry): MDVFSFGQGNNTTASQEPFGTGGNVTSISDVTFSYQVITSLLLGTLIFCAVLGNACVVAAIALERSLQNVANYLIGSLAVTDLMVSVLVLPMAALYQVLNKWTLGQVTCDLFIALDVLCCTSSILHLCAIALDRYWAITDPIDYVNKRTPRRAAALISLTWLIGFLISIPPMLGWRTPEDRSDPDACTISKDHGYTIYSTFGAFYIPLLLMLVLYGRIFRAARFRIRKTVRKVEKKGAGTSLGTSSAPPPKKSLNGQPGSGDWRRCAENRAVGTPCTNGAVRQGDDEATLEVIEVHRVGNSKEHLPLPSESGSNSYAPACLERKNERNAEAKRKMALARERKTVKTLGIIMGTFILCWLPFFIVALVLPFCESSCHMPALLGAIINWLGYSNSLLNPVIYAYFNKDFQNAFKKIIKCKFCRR
Decision: Ki beneath 6 nM gives 1; Ki meeting or exceeding 6 nM gives 0.

See these solved cases before continuing.
CC(=O)Nc1ccc(N2CCN(CCCCN3C(=O)c4ccccc4C3=O)CC2)cc1 : 0
COc1ccccc1N1CCN(CCCCNC(=O)c2ccc(Cl)cc2)CC1 : 1
COc1ccccc1N1CCN(CCCCNC(=O)C(C)(C)C)CC1 : 1

Q: Threshold test, Ki < 6 nM: "COc1ccccc1N1CCN(CCCCNC(=O)c2ccc(Cl)c(Cl)c2)CC1"
Result: 1

Q: Threshold test, Ki < 6 nM: "O=C1c2ccccc2C(=O)N1CCCCN1CCN(c2ccc([N+](=O)[O-])cc2)CC1"
Result: 0

Q: Threshold test, Ki < 6 nM: "COc1ccccc1N1CCN(CCCCNC(=O)c2ccc(N)cc2)CC1"
Result: 0

* * *

- ASSAY_TARGET: Adrenergic receptor alpha-1 (Rattus norvegicus, UniProt P15823+P23944+P43140)
- Sequence (P15823 whole entry): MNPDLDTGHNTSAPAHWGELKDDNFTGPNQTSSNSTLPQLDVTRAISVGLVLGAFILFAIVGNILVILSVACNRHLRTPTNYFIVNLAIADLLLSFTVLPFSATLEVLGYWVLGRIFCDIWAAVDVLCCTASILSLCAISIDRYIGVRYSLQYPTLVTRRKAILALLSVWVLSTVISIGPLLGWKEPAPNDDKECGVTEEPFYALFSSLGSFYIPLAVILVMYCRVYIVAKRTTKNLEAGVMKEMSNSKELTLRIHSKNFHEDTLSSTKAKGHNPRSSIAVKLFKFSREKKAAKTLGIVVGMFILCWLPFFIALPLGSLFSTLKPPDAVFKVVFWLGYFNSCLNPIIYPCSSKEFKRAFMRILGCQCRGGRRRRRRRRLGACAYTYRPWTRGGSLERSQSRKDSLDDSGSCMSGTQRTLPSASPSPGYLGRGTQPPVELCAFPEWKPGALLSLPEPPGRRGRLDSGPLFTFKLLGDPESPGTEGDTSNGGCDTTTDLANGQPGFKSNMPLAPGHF
- Sequence (P23944 whole entry): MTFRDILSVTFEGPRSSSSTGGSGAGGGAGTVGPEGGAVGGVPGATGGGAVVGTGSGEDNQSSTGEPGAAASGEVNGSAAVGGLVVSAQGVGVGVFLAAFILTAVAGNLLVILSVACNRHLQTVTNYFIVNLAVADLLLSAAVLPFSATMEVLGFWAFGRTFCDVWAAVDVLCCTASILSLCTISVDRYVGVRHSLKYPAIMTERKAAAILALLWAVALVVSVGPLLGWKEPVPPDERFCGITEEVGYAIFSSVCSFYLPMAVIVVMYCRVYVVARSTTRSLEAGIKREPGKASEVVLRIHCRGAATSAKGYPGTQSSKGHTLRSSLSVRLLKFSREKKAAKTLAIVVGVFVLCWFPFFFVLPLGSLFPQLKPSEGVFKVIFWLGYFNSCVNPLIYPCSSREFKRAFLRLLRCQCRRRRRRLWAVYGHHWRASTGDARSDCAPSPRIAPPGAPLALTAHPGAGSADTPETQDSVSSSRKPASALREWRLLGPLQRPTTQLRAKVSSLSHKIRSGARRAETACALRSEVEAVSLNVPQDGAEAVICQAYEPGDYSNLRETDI
- Sequence (P43140 whole entry): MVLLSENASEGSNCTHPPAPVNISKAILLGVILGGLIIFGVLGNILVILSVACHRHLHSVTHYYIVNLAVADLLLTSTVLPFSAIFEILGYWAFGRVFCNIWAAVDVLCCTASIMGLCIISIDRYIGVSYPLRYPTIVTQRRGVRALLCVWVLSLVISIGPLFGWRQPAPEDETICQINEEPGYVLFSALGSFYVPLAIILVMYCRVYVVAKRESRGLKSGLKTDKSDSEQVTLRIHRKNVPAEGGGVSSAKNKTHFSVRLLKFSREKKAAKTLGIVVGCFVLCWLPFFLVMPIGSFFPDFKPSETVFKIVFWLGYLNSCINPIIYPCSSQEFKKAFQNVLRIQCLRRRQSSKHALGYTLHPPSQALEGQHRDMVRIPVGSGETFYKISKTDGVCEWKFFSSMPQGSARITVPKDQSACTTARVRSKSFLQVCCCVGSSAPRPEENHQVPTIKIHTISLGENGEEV
- EXPERIMENT: Binding affinity towards alpha-1 adrenergic receptor of rat frontal cortex using [3H]- WB- 4101 as a radioligand
- Type: tissue-based
ENDPOINT_NAME: Ki (nM)
Report only the number, with the unit nM understood.

Before answering, review these 3 worked examples.
COc1ccccc1N1CCN(CCCCNC(=O)c2ccc(Cl)cc2)CC1 : 23
O=C(NCCCCN1CCN(c2cccc3ccccc23)CC1)C12C[C@H]3C[C@@H](C1)C[C@@H](C2)C3 : 109
COc1ccccc1N1CCN(CCCCNC(=O)c2ccc([N+](=O)[O-])cc2)CC1 : 14

// sample "COc1ccccc1N1CCN(CCCCNC(=O)c2ccc(O)cc2)CC1" , its Ki was 17

// sample "COc1ccc(OC)c(N2CCN(CCCCN3C(=O)c4ccccc4C3=O)CC2)c1" , its Ki was 15

// sample "COc1ccccc1N1CCN(CCCCNC(=O)C(C)(C)C)CC1" , its Ki was 74

* * *

- ASSAY_TARGET: Serotonin 1a (5-HT1a) receptor/Adrenergic receptor alpha-1 (Rattus norvegicus) (UniProt P15823+P23944+P43140+P19327)
- EXPERIMENT: Ratio of Ki value for alpha-1 receptor to that of 5-HT1A receptor
- Type: protein assay
ENDPOINT_NAME: Selectivity
Provide a numeric answer; units are not to be included.

// sample "CCCCC(=O)NCCCCN1CCN(c2ccccc2OC)CC1" , its Selectivity was 11

// sample "COc1ccccc1N1CCN(CCCCNC(=O)c2ccc(Cl)cc2)CC1" , its Selectivity was 6

// sample "O=C1c2ccccc2C(=O)N1CCCCN1CCN(c2cccc3ccccc23)CC1" , its Selectivity was 22

// sample "COc1ccccc1N1CCN(CCCCNC(=O)c2ccc(O)cc2)CC1" , its Selectivity was 3

// sample "COc1ccccc1N1CCN(CCCCNC(=O)C(C)(C)C)CC1" , its Selectivity was 74

// sample "O=C1c2ccccc2C(=O)N1CCCCN1CCN(c2ccccc2[N+](=O)[O-])CC1" , its Selectivity was 6

// sample "COc1ccc(OC)c(N2CCN(CCCCN3C(=O)c4ccccc4C3=O)CC2)c1" , its Selectivity was 0.7

// sample "COc1ccccc1N1CCN(CCCCNC(=O)CCCc2ccccc2)CC1" , its Selectivity was 7

// sample "COc1ccccc1N1CCN(CCCCNC(=O)c2ccc(I)cc2)CC1" , its Selectivity was 4

// sample "O=C(NCCCCN1CCN(c2cccc3ccccc23)CC1)C12C[C@H]3C[C@@H](C1)C[C@@H](C2)C3" , its Selectivity was 156
